molecular target: UniProtKB Q12809; experiment: Binding affinity to human ERG
Sequence (Q12809 whole entry): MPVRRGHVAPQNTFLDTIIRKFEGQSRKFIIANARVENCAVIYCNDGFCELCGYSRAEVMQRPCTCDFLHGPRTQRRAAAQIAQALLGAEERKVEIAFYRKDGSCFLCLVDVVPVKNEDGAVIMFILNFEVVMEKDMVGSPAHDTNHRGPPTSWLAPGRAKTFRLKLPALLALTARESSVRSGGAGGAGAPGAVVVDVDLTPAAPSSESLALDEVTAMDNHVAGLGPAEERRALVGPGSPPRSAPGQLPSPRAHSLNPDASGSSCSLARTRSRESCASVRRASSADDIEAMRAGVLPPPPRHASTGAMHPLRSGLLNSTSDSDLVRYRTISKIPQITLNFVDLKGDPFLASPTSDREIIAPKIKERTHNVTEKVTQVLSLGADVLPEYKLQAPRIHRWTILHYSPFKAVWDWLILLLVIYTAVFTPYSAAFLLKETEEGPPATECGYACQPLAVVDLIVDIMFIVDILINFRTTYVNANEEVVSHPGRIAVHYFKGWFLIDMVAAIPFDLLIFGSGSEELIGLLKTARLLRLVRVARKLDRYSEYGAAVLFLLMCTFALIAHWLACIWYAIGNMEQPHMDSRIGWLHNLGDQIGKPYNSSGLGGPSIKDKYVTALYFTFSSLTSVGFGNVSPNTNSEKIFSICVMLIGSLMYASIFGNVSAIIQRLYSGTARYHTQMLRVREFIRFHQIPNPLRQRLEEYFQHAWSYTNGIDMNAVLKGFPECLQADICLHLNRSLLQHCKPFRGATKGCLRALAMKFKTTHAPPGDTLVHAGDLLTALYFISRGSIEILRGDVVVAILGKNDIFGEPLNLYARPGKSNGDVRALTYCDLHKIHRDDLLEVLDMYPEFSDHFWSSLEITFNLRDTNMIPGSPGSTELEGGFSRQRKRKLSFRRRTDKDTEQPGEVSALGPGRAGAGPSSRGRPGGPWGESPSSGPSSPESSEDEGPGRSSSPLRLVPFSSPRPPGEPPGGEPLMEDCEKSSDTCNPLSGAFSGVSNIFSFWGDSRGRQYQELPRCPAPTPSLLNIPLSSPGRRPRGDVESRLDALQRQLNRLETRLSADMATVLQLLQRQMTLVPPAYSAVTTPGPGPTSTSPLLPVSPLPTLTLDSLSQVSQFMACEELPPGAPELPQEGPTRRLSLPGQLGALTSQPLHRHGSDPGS
READOUT KIND: EC50 (µM)
Numbers only, in µM.

In one line, give reported EC50 of the entry `CC(C)[C@@H](Nc1ccc(CNC(=O)[C@@H]2SCCN2C(=O)C[C@H](N)Cc2cc(F)c(F)cc2F)cc1)C(=O)O.Cl` .
408

* * *

molecular target: CYP3A4 (Homo sapiens, UniProt P08684); assay: Inhibition of CYP3A4 at 10 uM; assay type: ADME
Sequence (P08684 whole entry): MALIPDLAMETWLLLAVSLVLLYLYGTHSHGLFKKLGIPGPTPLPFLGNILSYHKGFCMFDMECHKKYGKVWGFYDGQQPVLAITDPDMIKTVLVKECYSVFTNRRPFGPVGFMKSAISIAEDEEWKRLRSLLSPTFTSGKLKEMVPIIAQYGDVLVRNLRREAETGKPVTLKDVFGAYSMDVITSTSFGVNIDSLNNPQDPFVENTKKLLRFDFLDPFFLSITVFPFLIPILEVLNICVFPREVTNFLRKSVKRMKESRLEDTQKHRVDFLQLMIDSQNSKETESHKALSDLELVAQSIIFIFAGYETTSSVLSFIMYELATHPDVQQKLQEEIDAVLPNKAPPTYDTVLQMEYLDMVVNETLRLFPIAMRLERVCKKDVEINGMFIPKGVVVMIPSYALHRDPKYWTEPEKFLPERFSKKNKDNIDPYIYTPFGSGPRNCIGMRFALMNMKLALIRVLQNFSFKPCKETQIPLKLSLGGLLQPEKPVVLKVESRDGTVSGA
READOUT KIND: inhibition at 10 µM (%)
One number for each entry, in %.

In one line, give reported inhibition at 10 µM of the entry `CC(C)[C@@H](Nc1ccc(CNC(=O)[C@@H]2SCCN2C(=O)C[C@H](N)Cc2cc(F)c(F)cc2F)cc1)C(=O)O.Cl` .
3.5
